target: human prostanoid EP4 receptor (Homo sapiens, UniProt P35408); construct: expressed in transfected cells; test: FLIPR Ca2+ signaling antagonist assay, EP4 receptor stable cell line; format: cell-based; settings: HEK-293 EBNA stable cell line; standard agonist PGE2; NA = inactive (no antagonism or Kb 10,000 nM); PAg, Ag not defined
Sequence (P35408 whole entry): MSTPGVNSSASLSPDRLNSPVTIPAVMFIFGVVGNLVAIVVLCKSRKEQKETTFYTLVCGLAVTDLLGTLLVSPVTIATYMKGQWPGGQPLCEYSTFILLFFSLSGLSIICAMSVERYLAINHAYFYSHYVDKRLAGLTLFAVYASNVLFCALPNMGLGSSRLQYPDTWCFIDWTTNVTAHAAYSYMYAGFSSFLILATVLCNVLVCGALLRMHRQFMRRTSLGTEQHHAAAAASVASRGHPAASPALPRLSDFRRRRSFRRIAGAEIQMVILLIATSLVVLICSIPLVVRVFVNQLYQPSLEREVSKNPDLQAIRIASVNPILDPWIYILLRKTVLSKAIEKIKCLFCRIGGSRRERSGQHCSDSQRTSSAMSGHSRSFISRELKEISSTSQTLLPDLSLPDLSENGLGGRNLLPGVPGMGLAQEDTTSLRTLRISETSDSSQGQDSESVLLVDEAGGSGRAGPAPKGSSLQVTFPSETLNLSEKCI
# Lookup of reported Kb keyed by entry
Give the quantity in nM, number only.

Cc1cc(CC(C)(C)C(=O)O)nn1Cc1cc(Cl)ccc1OCC1CCCC1 [Example 72] ... 180
Cc1cc(CCC(=O)NS(=O)(=O)C(F)(F)F)nn1Cc1cc(Br)ccc1OCC1CCCC1 [Example 18] ... 300
Cc1cc(CCC(=O)O)nn1Cc1cc(Cl)ccc1OCC1(C(F)(F)F)CCCC1 [Example 37] ... 1900

Specify reported Kb for the compound shown: CCC(CC)COc1ccc(Cl)cc1Cn1nc(CC(C)C(=O)O)cc1C (racemic) [Example 68] 130

Specify reported Kb for the compound shown: Cc1cc(CC(C)C(=O)O)nn1Cc1cc(Cl)ccc1OCC1CCCC1 (racemic) [Example 70] 80

----------
biological target: human prostanoid FP receptor (Homo sapiens); construct: expressed in transfected cells; test: FLIPR Ca2+ signaling antagonist assay, FP receptor stable cell line; format: cell-based; settings: HEK-293 EBNA stable cell line; standard agonist 17-phenyl-PGF2α; NA = inactive (no antagonism or Kb 10,000 nM); PAg, Ag not defined
Sequence (P43088 whole entry): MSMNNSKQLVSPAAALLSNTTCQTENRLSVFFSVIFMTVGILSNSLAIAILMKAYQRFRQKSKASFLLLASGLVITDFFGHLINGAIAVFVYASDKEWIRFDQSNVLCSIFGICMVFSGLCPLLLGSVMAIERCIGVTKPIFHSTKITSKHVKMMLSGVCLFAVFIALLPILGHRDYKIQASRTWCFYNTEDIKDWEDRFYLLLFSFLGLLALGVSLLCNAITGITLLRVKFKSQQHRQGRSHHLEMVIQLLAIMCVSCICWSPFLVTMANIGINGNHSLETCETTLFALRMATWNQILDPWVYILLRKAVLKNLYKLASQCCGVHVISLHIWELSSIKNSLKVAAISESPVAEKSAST
Label scheme, based on Kb: low: < 200 nM; medium: ≥ 200 nM and < 400 nM; high: ≥ 400 nM

Recorded results for 3 molecules are shown here.
CCC(CC)COc1ccc(F)cc1Cn1nc(CCC(=O)O)cc1C [Example 47] ... high
Cc1cc(CCC(=O)O)nn1Cc1cc(Cl)ccc1OCCC(C)C [Example 21] ... medium
Cc1cc(CC(C)(C)C(=O)O)nn1Cc1cc(Cl)ccc1OCC1CCCC1 [Example 72] ... high

Categorize the following entry: CCC(C)CCOc1ccc(Cl)cc1Cn1nc(CCC(=O)O)cc1C (stereo not shown) [Example 22] low

----------
Target: human prostanoid EP1 receptor (Homo sapiens)
Construct: expressed in transfected cells
Sequence (P34995 1-402): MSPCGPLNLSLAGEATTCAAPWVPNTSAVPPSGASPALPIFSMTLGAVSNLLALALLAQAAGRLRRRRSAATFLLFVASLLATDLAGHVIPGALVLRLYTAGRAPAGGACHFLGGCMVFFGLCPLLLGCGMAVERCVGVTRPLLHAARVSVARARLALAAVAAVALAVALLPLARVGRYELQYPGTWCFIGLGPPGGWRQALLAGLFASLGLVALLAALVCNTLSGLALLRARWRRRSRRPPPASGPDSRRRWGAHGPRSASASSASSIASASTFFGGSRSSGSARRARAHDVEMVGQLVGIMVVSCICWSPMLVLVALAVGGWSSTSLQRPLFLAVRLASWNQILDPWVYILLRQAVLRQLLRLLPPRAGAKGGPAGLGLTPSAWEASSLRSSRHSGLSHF
Assay: FLIPR Ca2+ signaling antagonist assay, EP1 receptor stable cell line
Format: cell-based
Settings: HEK-293 EBNA stable cell line; standard agonist PGE2; NA = inactive (no antagonism or Kb 10,000 nM); PAg, Ag not defined
# Lookup of reported Kb keyed by entry
Give the quantity in nM, number only.

Cc1cc(CC(C)C(=O)O)nn1Cc1cc(Cl)ccc1OCC1CCCC1 (racemic) [Example 70] ... 30

Specify reported Kb for the compound shown: Cc1cc(CCC(=O)O)nn1Cc1cc(Cl)ccc1CCC1CCCC1 [Example 74] 1300

Specify reported Kb for the compound shown: CCCc1cc(CCC(=O)O)nn1Cc1cc(Br)ccc1OCC(CC)CC [Example 56] 60

Specify reported Kb for the compound shown: Cc1cc(CCC(=O)O)nn1Cc1cc(Br)ccc1OCC1(C(F)(F)F)CCC1 [Example 13] 30

Specify reported Kb for the compound shown: CCC(CC)COc1ccc(Br)cc1Cn1nc(CCC(=O)NS(=O)(=O)C(F)(F)F)cc1C [Example 17] 15

Specify reported Kb for the compound shown: Cc1cc(CCC(=O)O)nn1Cc1cc(Cl)ccc1OCc1ccc(Cl)cc1C(F)(F)F [Example 29] 70

Specify reported Kb for the compound shown: CCc1ccc(OCC(CC)CC)c(Cn2nc(CCC(=O)O)cc2C)c1 [Example 66] 100

Specify reported Kb for the compound shown: CCC(C)CCOc1ccc(Br)cc1Cn1nc(CCC(=O)O)cc1C (stereo not drawn) [Example 7] 90

Specify reported Kb for the compound shown: Cc1cc(CCC(=O)O)nn1Cc1cc(C(F)(F)F)ccc1OCc1ccc(Cl)cc1 [Example 52] 5

FYI, the data here is from patent US9394284B2.
